The reader will find reported pIC50 values listed item by item below.
Molecular target: GCN2 (Homo sapiens)
Sequence (Q9P2K8 whole entry): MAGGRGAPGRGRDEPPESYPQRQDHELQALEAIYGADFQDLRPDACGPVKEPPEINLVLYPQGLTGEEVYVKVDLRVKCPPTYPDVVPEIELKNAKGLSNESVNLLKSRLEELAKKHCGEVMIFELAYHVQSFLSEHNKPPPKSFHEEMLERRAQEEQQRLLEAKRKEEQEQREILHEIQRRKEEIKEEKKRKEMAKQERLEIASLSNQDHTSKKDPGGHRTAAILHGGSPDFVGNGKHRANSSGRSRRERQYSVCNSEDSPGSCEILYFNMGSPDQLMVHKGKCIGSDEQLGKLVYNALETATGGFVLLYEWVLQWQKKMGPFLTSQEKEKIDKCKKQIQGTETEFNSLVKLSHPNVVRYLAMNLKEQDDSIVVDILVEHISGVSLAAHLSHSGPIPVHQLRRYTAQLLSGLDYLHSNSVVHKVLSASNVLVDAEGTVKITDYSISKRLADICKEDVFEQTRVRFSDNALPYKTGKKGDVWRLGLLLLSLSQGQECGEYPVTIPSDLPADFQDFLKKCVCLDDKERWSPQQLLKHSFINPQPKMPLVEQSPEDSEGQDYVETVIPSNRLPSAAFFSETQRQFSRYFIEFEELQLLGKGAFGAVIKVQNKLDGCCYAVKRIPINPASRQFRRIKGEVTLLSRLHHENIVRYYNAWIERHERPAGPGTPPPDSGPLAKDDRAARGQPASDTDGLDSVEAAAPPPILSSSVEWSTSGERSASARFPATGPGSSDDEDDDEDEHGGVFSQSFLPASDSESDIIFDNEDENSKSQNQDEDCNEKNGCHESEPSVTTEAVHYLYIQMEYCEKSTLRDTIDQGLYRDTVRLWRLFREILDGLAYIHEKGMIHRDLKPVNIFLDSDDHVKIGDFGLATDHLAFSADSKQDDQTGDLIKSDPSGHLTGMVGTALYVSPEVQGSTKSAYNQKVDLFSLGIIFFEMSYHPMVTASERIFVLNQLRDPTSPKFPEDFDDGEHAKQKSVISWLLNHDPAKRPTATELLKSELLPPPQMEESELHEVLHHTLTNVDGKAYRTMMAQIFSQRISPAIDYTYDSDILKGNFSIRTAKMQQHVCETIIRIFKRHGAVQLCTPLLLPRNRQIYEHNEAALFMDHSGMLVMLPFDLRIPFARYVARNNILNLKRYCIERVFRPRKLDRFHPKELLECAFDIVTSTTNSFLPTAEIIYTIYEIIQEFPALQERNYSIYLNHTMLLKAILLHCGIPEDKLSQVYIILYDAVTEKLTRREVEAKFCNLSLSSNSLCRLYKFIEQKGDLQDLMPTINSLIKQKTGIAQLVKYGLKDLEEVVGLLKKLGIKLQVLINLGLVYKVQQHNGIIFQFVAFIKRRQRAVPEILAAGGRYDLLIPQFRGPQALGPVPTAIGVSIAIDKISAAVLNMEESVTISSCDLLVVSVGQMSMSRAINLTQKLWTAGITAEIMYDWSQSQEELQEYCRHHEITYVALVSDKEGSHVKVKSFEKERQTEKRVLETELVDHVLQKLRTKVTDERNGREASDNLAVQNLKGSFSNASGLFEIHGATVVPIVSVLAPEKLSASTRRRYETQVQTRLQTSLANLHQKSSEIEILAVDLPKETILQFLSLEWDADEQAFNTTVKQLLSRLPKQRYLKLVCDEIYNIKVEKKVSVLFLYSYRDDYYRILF
Test: GCN2 enzymatic endpoint assay: phosphorylation of GFP-eIF2α measured by TR-FRET (Lanthascreen)
Assay type: biochemical
Conditions: tested as described in Example 77; compound and/or hydrochloride, dihydrochloride or trifluoroacetic acid salt; read-out: IC 50 Activity
Description: The Enzymatic assay was run as an endpoint assay to quantify the activity of the serine/threonine GCN2 kinase by way of measuring phosphorylation of its natural substrate, eiF2α. The enzymatic reaction was initiated by incubating with 2 μM ATP and 80 nM of GFP labeled eiF2a substrate at room temperature and then stopped after 90 minutes with EDTA. The amount of phosphorylated eIF2α is determined by TR-FRET (Lanthascreen). […]
pIC50: −log10 of the molar value.

Could you please provide reported pIC50 for CC1(C(=O)N2CCNCC2)CC[C@@H](Nc2ncc3c(Br)nn(-c4cc(F)c5ncccc5c4)c3n2)C1 (stereo partly shown) ? Thanks! > 7.60

Could you please provide reported pIC50 for C[C@H](N)c1cc(Cl)cc(-n2nc(Br)c3cnc(N[C@@H]4CCC5(CC(=O)N(C)C5=O)C4)nc32)c1 (stereo partly shown) ? Thanks! 6.70 to 7.60

Could you please provide reported pIC50 for CNC(=O)[C@]1(C)CC[C@@H](Nc2ncc3c(Br)nn(-c4ccc(-c5nnc(C)s5)c(CC(C#N)CO)c4)c3n2)C1 (stereo partly shown) ? Thanks! > 7.60

More entries:
Could you please provide reported pIC50 for N#Cc1cc(-n2nc(Br)c3cnc(N[C@@H]4CC[C@@H](C(=O)NC[C@@H]5COCCN5)C4)nc32)cc2cccnc12 ? Thanks! > 7.60
